system: morningglory; assay: Test B pre-/postemergence herbicide test; assay type: in vivo, Ipomoea coccinea; conditions: 500 g ai/ha; visual rating, 0 = no effect, 100 = complete control; preemergence
Item-by-item account of Plant response rating, Morningglory
Field format: numeric only.

CCc1nn(C(C)C)nc1C(=O)Nc1cccc(C(=O)N2CC=CC2)c1 : 50

State its Plant response rating, Morningglory for this compound: CCn1nc(C(C)(C)C)cc1C(=O)Nc1cccc(OC(F)(F)C(F)F)c1
10

State its Plant response rating, Morningglory for this compound: CCN1N=C(C(C)(C)C)CC1C(=O)Nc1cc(C(=O)N2CCCCC2)ccc1F (racemic)
0

State its Plant response rating, Morningglory for this compound: CCn1nc(C(C)(C)C)cc1C(=O)Nc1cccc(C(=O)N2CC=CC2)c1
0

State its Plant response rating, Morningglory for this compound: CCN(C)C(=O)c1cccc(NC(=O)c2sc(C(C)(C)C)nc2C)c1
20

Numbers sourced from patent US20060069132A1.
